target-of-assay: T1, LILRA5-His (Acro, LI5-H82E1) (human, UniProt A6NI73 42-268)
T1 construct: Bought protein. 'Human' stands at the head of the list of coated proteins; not shown: His tag
T1 sequence (A6NI73 42-268 limits assumed): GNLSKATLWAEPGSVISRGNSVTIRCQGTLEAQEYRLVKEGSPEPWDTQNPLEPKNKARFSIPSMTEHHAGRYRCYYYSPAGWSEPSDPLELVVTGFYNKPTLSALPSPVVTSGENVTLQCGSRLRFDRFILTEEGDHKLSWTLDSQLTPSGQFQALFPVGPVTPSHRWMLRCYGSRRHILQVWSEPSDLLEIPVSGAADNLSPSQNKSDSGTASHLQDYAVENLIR
protocol-text: ELISA, coated protein 1 µg/mL, antibody 10 µg/mL

binder	absorbance at 450 nm (absorbance at 450 nm)
fully human-derived antibody P2m (antibody, human IgG1, kappa, L234A L235A, V domains shown, Full chains) VH: QVQLVQSGAEVKKPGSSVKVSCKASGYTFTSYDISWVRQAPGQGLEWMGGIIPIFGTANYAQKFQGRVTITADESTSTAYMELSSLRSEDTAVYYCTAGIFLATAYWGQGTLVTVSS VL: DIQMTQSPSSMSASVGDRVTISCQASQDIQNYLNWYQQRPGQAPKLLIYDASTLETGVPSRFSGSGSGTYFTLTISSLQPEDVATYYCQQYENVPITFGQGTRLEIKR	0.0459
